- Study System: Stb4 (UniProt P50104)
- Sequence (P50104 whole entry): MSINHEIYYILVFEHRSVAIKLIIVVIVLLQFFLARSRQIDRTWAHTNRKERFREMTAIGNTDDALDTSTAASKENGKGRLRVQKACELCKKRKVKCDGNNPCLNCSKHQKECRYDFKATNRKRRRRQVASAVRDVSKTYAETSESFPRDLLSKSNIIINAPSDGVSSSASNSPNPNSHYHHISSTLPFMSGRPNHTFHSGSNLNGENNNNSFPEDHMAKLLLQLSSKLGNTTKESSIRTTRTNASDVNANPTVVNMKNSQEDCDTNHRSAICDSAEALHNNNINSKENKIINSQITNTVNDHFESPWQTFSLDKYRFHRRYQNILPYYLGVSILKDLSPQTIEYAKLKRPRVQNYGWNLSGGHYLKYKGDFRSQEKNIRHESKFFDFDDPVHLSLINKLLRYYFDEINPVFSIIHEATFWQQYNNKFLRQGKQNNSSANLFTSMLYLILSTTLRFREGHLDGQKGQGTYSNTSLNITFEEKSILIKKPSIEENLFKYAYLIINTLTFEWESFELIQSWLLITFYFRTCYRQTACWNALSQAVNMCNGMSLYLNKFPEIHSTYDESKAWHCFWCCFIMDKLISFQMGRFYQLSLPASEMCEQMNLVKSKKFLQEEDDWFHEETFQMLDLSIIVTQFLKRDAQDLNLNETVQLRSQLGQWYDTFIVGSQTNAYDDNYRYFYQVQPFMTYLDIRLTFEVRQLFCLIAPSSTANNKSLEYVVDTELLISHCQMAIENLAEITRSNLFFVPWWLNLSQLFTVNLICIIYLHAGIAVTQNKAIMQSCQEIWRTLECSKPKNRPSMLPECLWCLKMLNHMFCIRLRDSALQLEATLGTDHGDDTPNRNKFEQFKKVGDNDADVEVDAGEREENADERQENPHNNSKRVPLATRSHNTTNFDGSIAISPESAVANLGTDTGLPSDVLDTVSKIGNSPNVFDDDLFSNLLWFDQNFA
- Assay Notes: PBM E-score (8-mer binding enrichment) (E-score (-0.5 to 0.5)); higher = stronger / more preferred TF binding
- Applied Conditions: protein concentration: 200 nM; construct: GST-DNA-binding domain
Whole data set: some 33,000 sequences, median “E-score (-0.5 to 0.5)” near -0.056, cut for the highest 2% near 0.38. This excerpt belongs to a sample that is enriched for the highest values.
Decide using PBM E-score: a value greater than or equal to 0.04 is MET, a smaller one is NOT MET.

Worked examples follow.
Residue String: CCACTTGA
Group Label: NOT MET

Residue String: TGCTAAAA
Group Label: NOT MET

Residue String: AATATCTA
Group Label: NOT MET

Residue String: CTTTCGAC
Group Label: NOT MET

Residue String: CCCGAATA
Group Label: MET

Residue String: ATGACCCA
Group Label: NOT MET

Does the sequence ACCATCCC have recorded PBM E-score that is 0.04 or more? MET

Does the sequence ATCTATAC have recorded PBM E-score that is 0.04 or more? MET

Does the sequence TGCACTAA have recorded PBM E-score that is 0.04 or more? NOT MET

Does the sequence CTCCTCGA have recorded PBM E-score that is 0.04 or more? NOT MET

Does the sequence AAGAGGTG have recorded PBM E-score that is 0.04 or more? NOT MET

Does the sequence CTCGAATC have recorded PBM E-score that is 0.04 or more? NOT MET

Does the sequence ATACCGAA have recorded PBM E-score that is 0.04 or more? MET
